biological target: DKH412 (Drosophila kinesin heavy chain residues 1-412, dimeric head construct) (Drosophila, UniProt P17210 1-412); experiment: inhibition of basal steady state ATPase
Sequence (P17210 1-412): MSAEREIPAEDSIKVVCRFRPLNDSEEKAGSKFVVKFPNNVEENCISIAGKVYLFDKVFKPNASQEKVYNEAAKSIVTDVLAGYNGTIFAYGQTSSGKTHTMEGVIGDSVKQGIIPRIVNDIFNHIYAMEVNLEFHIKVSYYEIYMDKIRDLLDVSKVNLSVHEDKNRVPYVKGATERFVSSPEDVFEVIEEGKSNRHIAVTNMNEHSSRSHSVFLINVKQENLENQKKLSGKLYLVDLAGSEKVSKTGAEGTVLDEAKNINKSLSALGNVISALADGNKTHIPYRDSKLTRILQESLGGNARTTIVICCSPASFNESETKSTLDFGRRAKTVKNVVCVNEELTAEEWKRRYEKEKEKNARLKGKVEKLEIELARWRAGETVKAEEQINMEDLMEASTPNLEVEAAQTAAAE
pKd: −log10 of the molar value.
PROPERTY_MEASURED: pKd

1) AVRQKHLGRRGPQAQIAKPIRSGQGATS (domain or fragment, Drosophila) [TT927-952 (thioredoxin fusion of kinesin tail residues 927-952)] = > 7.00

Origin of measurements: paper PMC3321547
